I'd appreciate it if you could supply solubility kinetic values for the items below.
- assay.protocol: Kinetic aqueous solubility of the compound
- Format: physicochemical
- assay.context: buffer; read-out: Kinetic_solubility
Answer in µg/mL, number only, no unit symbol.

The value of solubility kinetic measured for the molecule CC1=C(C(=O)Nc2nncs2)C(c2nn(C)cc2Br)N=C(Nc2nc3ccccc3o2)N1 (stereo unspecified) turned out to be 6.4

Reported solubility kinetic for CC1=C(C(=O)Nc2cc(C(N)=O)ccn2)C(c2ccccc2Cl)N=C(Nc2nc3ccc(F)cc3o2)N1 (stereo unspecified) was 2.4

CC1=C(C(=O)Nc2nncs2)C(c2n[nH]cc2Br)N=C(Nc2nc3ccccc3o2)N1 (stereo unspecified) has a reported solubility kinetic of 11.4

Record summary for O=C(O)CNC(=O)C1CC(=O)C2=C(C1)NC(Nc1nc3ccccc3o1)=NC2c1ccccc1Cl (stereo unspecified) : reported solubility kinetic = 58.2

Record CC1=C(C(=O)Nc2cc(C(=O)O)ccn2)C(c2ccccc2Br)N=C(Nc2nc3ccc(F)cc3o2)N1 (stereo unspecified) , field solubility kinetic: 36

Query CC1=C(C(=O)Nc2cc(C(=O)O)ccn2)C(c2ccc(Br)cc2Cl)N=C(Nc2nc3ccc(F)cc3o2)N1 (stereo unspecified) yields solubility kinetic of 2.4

The reported value for CC1=C(C(=O)NCc2c(C)nn(C)c2C)C(c2ccc(C)cc2Cl)N=C(Nc2nc3cccc(N)c3o2)N1 (stereo unspecified) in terms of solubility kinetic is 12

According to the records, this molecule CC1=C(C(=O)Nc2cc(N(C)C)ccn2)C(c2ccc(C)cc2Cl)N=C(Nc2nc3ccc(F)cc3o2)N1 (stereo unspecified) displays solubility kinetic of 6.2

What the record says about CC1=C(C(=O)Nc2nncs2)C(c2ccncc2Br)N=C(Nc2nc3ccccc3o2)N1 (stereo unspecified) : solubility kinetic is 6.5

Reported solubility kinetic for "CCn1cc(CNC(=O)C2=C(C)NC(Nc3nc4ccc(F)c(N)c4o3)=N[C@H]2c2ccc(C)cc2Cl)cn1" was 22.1

Per the records, this molecule ( CC1=C(C(=O)Nc2cc(C(=O)O)ccn2)C(c2ccccc2Cl)N=C(Nc2nc3cc(Cl)ccc3o2)N1 (stereo unspecified) ) has solubility kinetic equal to 35.2
